Provenance of the data: the supplement of paper PMC5998384

Item-by-item account of thermal stability score
test system: HeLa Kyoto; assay: thermal stability score vs G1/S (z-score of summed log2 fold changes over temperatures); higher = more thermally stable than in G1/S; details: cell cycle stage: early G1 (4.5 h after nocodazole release)

SEQUENCE_ENTRY: MPNIKIFSGSSHQDLSQKIADRLGLELGKVVTKKFSNQETCVEIGESVRGEDVYIVQSGCGEINDNLMELLIMINACKIASASRVTAVIPCFPYARQDKKDKSRAPISAKLVANMLSVAGADHIITMDLHASQIQGFFDIPVDNLYAEPAVLKWIRENISEWRNCTIVSPDAGGAKRVTSIADRLNVDFALIHKERKKANEVDRMVLVGDVKDRVAILVDDMADTCGTICHAADKLLSAGATRVYAILTHGIFSGPAISRINNACFEAVVVTNTIPQEDKMKHCSKIQVIDISMILAEAIRRTHNGESVSYLFSHVPL [PRPS1]
thermal stability score: 1.55
//
SEQUENCE_ENTRY: MAVPAAAMGPSALGQSGPGSMAPWCSVSSGPSRYVLGMQELFRGHSKTREFLAHSAKVHSVAWSCDGRRLASGSFDKTASVFLLEKDRLVKENNYRGHGDSVDQLCWHPSNPDLFVTASGDKTIRIWDVRTTKCIATVNTKGENINICWSPDGQTIAVGNKDDVVTFIDAKTHRSKAEEQFKFEVNEISWNNDNNMFFLTNGNGCINILSYPELKPVQSINAHPSNCICIKFDPMGKYFATGSADALVSLWDVDELVCVRCFSRLDWPVRTLSFSHDGKMLASASEDHFIDIAEVETGDKLWEVQCESPTFTVAWHPKRPLLAFACDDKDGKYDSSREAGTVKLFGLPNDS [THOC3]
thermal stability score: -1.08

###

test system: HeLa Kyoto; assay: thermal stability score vs G1/S (z-score of summed log2 fold changes over temperatures); higher = more thermally stable than in G1/S; conditions: cell cycle stage: mitosis;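 note: synchronized HeLa Kyoto cells, proteins quantified by TMT10plex mass spectrometry, three biological replicates, mitosis taken 0.5 h after nocodazole release, G1/S directly after double thymidine block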
Respond with Y for thermal stability score values of 0.4 and above, N for values below.

SEQUENCE_ENTRY: MLSVASRSGPFAPVLSATSRGVAGALRPLVQATVPATPEQPVLDLKRPFLSRESLSGQAVRRPLVASVGLNVPASVCYSHTDIKVPDFSEYRRLEVLDSTKSSRESSEARKGFSYLVTGVTTVGVAYAAKNAVTQFVSSMSASADVLALAKIEIKLSDIPEGKNMAFKWRGKPLFVRHRTQKEIEQEAAVELSQLRDPQHDLDRVKKPEWVILIGVCTHLGCVPIANAGDFGGYYCPCHGSHYDASGRIRLGPAPLNLEVPTYEFTSDDMVIVG [UQCRFS1]
DISCRETE_LABEL: N
--
SEQUENCE_ENTRY: MGNLLKVLTCTDLEQGPNFFLDFENAQPTESEKEIYNQVNVVLKDAEGILEDLQSYRGAGHEIREAIQHPADEKLQEKAWGAVVPLVGKLKKFYEFSQRLEAALRGLLGALTSTPYSPTQHLEREQALAKQFAEILHFTLRFDELKMTNPAIQNDFSYYRRTLSRMRINNVPAEGENEVNNELANRMSLFYAEATPMLKTLSDATTKFVSENKNLPIENTTDCLSTMASVCRVMLETPEYRSRFTNEETVSFCLRVMVGVIILYDHVHPVGAFAKTSKIDMKGCIKVLKDQPPNSVEGLLNALRYTTKHLNDETTSKQIKSMLQ [FAM49B]
DISCRETE_LABEL: Y
--
SEQUENCE_ENTRY: MAAMRKALPRRLVGLASLRAVSTSSMGTLPKRVKIVEVGPRDGLQNEKNIVSTPVKIKLIDMLSEAGLSVIETTSFVSPKWVPQMGDHTEVLKGIQKFPGINYPVLTPNLKGFEAAVAAGAKEVVIFGAASELFTKKNINCSIEESFQRFDAILKAAQSANISVRGYVSCALGCPYEGKISPAKVAEVTKKFYSMGCYEISLGDTIGVGTPGIMKDMLSAVMQEVPLAALAVHCHDTYGQALANTLMALQMGVSVVDSSVAGLGGCPYAQGASGNLATEDLVYMLEGLGIHTGVNLQKLLEAGNFICQALNRKTSSKVAQATCKL [HMGCL]
DISCRETE_LABEL: N
--
SEQUENCE_ENTRY: MALVASVRVPARVLLRAGARLPGAALGRTERAAGGGDGARRFGSQRVLVEPDAGAGVAVMKFKNPPVNSLSLEFLTELVISLEKLENDKSFRGVILTSDRPGVFSAGLDLTEMCGRSPAHYAGYWKAVQELWLRLYQSNLVLVSAINGACPAGGCLVALTCDYRILADNPRYCIGLNETQLGIIAPFWLKDTLENTIGHRAAERALQLGLLFPPAEALQVGIVDQVVPEEQVQSTALSAIAQWMAIPDHARQLTKAMMRKATASRLVTQRDADVQNFVSFISKDSIQKSLQMYLERLKEEKG [ECI1]
DISCRETE_LABEL: N
--
SEQUENCE_ENTRY: MVEADRPGKLFIGGLNTETNEKALETVFGKYGRIVEVLLIKDRETNKSRGFAFVTFESPADAKDAARDMNGKSLDGKAIKVEQATKPSFERGRHGPPPPPRSRGPPRGFGAGRGGSGGTRGPPSRGGHMDDGGYSMNFNMSSSRGPLPVKRGPPPRSGGPSPKRSAPSGLVRSSSGMGGRAPLSRGRDSYGGPPRREPLPSRRDVYLSPRDDGYSTKDSYSSRDYPSSRDTRDYAPPPRDYTYRDYGHSSSRDDYPSRGYGDRDGYGRDRDYSDHPSGGSYRDSYESYGNSRSAPLTRGPPPSYGGSSRYDDYSSSRDGYGGSRDSYSSSRSDLYSSCDRVGRQERGLPPSVERGYPSSRDSYSSSSRGAPRGAGPGGSRSDRGGGRSRY [RBMXL1]
DISCRETE_LABEL: N
